Molecular target: Insulin-like growth factor 1 receptor (Homo sapiens, UniProt P08069)
Sequence (P08069 31-736 limits assumed): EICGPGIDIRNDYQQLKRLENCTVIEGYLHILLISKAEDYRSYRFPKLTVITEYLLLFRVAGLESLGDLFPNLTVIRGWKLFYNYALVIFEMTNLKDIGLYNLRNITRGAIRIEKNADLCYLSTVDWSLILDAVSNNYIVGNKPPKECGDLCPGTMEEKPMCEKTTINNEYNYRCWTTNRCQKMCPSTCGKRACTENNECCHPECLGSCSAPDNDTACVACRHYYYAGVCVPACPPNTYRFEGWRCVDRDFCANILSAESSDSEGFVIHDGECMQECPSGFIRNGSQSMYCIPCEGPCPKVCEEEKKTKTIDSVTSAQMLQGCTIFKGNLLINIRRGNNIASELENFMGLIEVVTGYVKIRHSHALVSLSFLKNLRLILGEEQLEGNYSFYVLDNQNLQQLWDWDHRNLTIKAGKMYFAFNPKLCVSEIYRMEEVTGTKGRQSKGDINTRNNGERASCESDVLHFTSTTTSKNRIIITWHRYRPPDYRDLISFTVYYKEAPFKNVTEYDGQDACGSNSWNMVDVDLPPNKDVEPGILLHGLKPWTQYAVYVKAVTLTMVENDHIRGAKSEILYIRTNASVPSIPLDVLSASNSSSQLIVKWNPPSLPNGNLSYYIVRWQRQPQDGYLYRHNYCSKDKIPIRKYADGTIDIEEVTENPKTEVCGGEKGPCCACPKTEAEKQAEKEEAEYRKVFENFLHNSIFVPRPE
Sequence (P08069 741-1367 limits assumed): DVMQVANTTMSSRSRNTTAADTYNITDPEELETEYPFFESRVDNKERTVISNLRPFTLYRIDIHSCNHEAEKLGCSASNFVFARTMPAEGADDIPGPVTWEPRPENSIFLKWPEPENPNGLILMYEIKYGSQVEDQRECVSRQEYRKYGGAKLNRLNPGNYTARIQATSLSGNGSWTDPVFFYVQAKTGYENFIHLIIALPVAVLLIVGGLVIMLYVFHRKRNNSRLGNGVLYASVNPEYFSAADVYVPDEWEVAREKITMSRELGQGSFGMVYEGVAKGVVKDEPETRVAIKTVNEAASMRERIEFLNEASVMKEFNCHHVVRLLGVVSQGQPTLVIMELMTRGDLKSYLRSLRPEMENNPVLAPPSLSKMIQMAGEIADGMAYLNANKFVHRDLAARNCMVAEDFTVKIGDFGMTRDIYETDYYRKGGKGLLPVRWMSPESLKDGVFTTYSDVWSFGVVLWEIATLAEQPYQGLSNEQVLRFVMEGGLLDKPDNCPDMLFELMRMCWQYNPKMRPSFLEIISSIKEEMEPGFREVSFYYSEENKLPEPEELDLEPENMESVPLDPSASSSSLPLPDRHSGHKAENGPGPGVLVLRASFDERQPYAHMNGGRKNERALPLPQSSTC
pIC50: −log10 of the molar value.
MEASURED_PROPERTY: pIC50

Query (compound): COc1ccc(C(=O)NC[C@@H](O)CO)cc1/C=C/c1ccc(Cl)cc1 ; field requested: pIC50
< 4.30

====

Experiment: Cmax in nude mouse at 30 mg/kg, po by LC-MS/MS analysis
Type: ADME, organism-based
Parameters: dose 30 mg/kg, route oral
Conditions: in vivo
Quick reference: Cmax of the listed items.
Enter your answer as a number in ng/mL; do not include the unit.

>>> measured_value("COc1ccc(C(=O)NC[C@@H](O)CO)cc1/C=C/c1ccc(Cl)cc1")
8270

Query (molecule): COc1ccc(C(=O)NC[C@H](O)CO)cc1/C=C/c1ccc(Cl)cc1 ; field requested: Cmax
9370
